// reported inhibition at 10 µM per item
Target under test: hFASN enzyme (full length) (Homo sapiens)
Construct: 10 μL hFASN enzyme (full length, 300 ng, purified in house); made in house
Test: Fatty Acid Synthase (FASN) Inhibition Scintillation Proximity Assay
Assay type: biochemical
Stated conditions: read-out: FASN % Effect @1E−05M
Give just the number in %; leave the unit off.

Exercise: Please give the measured inhibition at 10 µM for this molecule: Cc1ccc(C(=O)N2CCC(c3ccc(-c4cnn(C)c4)cc3)CC2)cc1NC(=O)C1CN(C2CCC(C)C2)C1 (stereo not shown)
Solution: 109

Exercise: Item: CC(C)Nc1ccc(C(=O)Nc2cc(C(=O)N3CC(c4ccc(-c5ccnc6ccccc56)cc4)C3)ccc2Cl)cn1
Solution: 100

Exercise: Item: Cc1ccc(C(=O)N2CCC(c3ccc4nncn4c3)CC2)cc1NC(=O)c1ccc(Cl)nc1
Solution: 2

Exercise: Item: CC(C)Nc1ccc(C(=O)Nc2cc(C(=O)N3CC(c4ccc(-c5cnn(C)c5)cc4)C3)ccc2Cl)cn1
Solution: 99

---

Target under test: hFASN enzyme (full length) (Homo sapiens, UniProt P49327)
Construct: 10 μL hFASN enzyme (full length, 300 ng, purified in house); made in house
Sequence (P49327 whole entry): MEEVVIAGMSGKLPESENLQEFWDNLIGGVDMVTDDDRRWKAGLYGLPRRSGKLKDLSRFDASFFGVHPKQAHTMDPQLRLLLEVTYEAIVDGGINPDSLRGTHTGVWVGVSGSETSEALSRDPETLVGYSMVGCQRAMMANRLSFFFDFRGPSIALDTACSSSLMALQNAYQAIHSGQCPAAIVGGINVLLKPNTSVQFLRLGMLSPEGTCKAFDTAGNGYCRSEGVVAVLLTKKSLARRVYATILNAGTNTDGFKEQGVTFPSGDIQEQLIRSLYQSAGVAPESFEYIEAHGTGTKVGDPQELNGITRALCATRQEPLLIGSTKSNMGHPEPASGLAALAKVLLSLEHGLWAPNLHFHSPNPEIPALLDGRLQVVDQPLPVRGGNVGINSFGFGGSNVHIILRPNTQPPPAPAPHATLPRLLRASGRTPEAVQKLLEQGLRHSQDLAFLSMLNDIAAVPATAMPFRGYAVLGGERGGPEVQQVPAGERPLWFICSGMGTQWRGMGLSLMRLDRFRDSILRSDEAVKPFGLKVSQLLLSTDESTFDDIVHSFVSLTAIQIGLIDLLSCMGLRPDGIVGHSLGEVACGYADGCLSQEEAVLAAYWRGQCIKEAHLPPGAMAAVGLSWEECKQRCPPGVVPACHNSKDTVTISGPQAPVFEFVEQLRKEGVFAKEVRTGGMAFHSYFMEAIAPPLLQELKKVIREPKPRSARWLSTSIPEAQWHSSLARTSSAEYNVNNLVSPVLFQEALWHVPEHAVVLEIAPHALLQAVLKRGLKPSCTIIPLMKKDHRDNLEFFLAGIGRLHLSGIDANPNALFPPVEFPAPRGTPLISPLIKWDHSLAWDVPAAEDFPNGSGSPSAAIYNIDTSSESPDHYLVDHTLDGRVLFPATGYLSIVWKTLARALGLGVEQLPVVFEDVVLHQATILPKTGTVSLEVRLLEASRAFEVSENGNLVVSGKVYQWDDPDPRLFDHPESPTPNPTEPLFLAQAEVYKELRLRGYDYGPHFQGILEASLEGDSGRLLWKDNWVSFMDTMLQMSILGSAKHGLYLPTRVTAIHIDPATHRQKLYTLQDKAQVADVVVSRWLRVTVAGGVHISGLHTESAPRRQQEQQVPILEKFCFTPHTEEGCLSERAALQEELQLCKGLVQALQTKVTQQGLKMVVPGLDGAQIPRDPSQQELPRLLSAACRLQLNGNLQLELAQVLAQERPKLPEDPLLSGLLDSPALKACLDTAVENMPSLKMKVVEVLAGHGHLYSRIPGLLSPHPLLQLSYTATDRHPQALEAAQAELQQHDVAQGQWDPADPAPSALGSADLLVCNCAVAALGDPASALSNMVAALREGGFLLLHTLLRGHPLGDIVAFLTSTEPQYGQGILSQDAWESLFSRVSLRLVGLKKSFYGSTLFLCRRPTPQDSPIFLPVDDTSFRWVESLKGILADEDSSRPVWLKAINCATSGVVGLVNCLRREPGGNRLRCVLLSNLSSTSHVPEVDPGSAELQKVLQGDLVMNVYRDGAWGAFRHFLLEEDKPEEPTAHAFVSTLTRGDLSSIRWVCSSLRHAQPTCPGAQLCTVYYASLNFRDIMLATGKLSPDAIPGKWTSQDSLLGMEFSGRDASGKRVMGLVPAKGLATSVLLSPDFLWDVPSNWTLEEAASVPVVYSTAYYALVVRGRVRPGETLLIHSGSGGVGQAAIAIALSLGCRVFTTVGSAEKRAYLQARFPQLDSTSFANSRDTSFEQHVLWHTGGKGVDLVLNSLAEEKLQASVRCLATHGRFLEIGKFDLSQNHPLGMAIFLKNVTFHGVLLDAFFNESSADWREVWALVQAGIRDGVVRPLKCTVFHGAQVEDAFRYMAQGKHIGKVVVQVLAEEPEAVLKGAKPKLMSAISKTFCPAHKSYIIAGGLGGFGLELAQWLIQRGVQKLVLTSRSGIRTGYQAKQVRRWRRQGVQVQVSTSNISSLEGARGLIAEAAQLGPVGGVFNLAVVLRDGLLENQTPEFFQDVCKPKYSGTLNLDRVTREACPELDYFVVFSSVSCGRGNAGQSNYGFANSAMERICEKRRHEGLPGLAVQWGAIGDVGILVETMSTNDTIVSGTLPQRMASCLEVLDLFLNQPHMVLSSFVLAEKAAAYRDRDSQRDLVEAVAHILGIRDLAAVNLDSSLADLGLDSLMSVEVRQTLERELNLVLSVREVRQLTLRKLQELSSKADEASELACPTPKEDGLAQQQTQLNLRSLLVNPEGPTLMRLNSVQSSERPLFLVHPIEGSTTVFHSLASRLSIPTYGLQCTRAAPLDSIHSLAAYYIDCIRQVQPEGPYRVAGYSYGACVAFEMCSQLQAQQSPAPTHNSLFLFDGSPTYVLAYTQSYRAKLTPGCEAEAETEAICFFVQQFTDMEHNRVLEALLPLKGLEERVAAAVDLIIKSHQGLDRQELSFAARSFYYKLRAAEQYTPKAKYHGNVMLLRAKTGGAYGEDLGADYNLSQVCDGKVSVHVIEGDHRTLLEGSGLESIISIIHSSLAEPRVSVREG
Test: Fatty Acid Synthase (FASN) Inhibition Scintillation Proximity Assay
Format: biochemical
Stated conditions: read-out: FASN % Effect @1E−05M
Measurement name: inhibition at 10 µM
Provide the measurement as a number trailed by its unit.

Exercise: Please state recorded inhibition at 10 µM (tested on hFASN enzyme (full length) (Homo sapiens, UniProt P49327)) of Cc1ccc(C(=O)N2CCC(c3ccc(-c4cnn(C)c4)cc3)CC2)cc1NC(=O)C1CN(C)C1
Solution: 113%

Exercise: Item: COc1cccc(-c2ccc(C3CCN(C(=O)c4ccc(C)c(NC(=O)c5ccc(NC(C)C)nc5)c4)CC3)cc2)c1
Solution: 86%

---

Target under test: FASN Keto-reductase Domain (Homo sapiens)
Construct: 10 μL hFASN enzyme (full length, 300 ng, purified in house) and 360 μM NADPH; made in house
Sequence (P49327 whole entry, the tested form may be a part): as the sequence (P49327 whole entry) above
Test: Fatty Acid Synthase Keto-Reductase Domain (FASN KR) Inhibition
Type: biochemical
Stated conditions: mean where tested more than once; read-out: FASN K-R Domain pIC50 (converted)
Measurement name: log10(IC50) (log10 of the value in µM)
For clarity, the numbers are log10 values of IC50 expressed in µM.

Use these answered entries as a reference point.
Molecule: Cc1ccc(C(=O)N2CCC(c3ccc(-c4cnoc4)cc3)CC2)cc1NC(=O)c1ccc(NC(C)C)nc1
log10(IC50): -1.60
--
Molecule: Cc1ccc(C(=O)N2CCC(c3ccc(-c4cnn(C)c4)cc3)CC2)cc1NC(=O)c1ccc(Cl)nc1
log10(IC50): -1.42
--
Molecule: COCCN(C)c1ccc(C(=O)N2CCC(c3ccc(-c4cnn(C)c4)cc3)CC2)cc1NC(=O)c1ccc(NC(C)C)nc1
log10(IC50): -0.03
--
Molecule: CCCN1CCC(C(=O)Nc2cc(C(=O)N3CCC(c4ccc(-c5cnn(C)c5)cc4)CC3)ccc2C)CC1
log10(IC50): -0.96
--
Molecule: Cc1ccc(C(=O)N2CC(c3ccc(-c4cnn(C)c4)cc3)C2)cc1NC(=O)c1ccc(Cl)nc1
log10(IC50): -1.01
--
Molecule: Cc1ccc(C(=O)N2CC(c3ccc(-c4cnn(C)c4)cc3)C2)cc1NC(=O)c1ccc(N(C)C(C)C)nc1
log10(IC50): -1.60
--
Molecule: CCCN1CC(C(=O)Nc2cc(C(=O)N3CCC(c4ccc(-c5cnn(C)c5)cc4)CC3)ccc2C)C1
log10(IC50): -0.20
--
Molecule: CC(C)Nc1ccc(C(=O)Nc2cc(C(=O)N3CCC(c4ccc(-c5ccncc5)cc4)CC3)ccc2Cl)cn1
log10(IC50): -0.60

Exercise: Please give the measured log10(IC50) for this molecule: Cc1ccc(C(=O)N2CCC(c3ccc(-c4cnn(C)c4)cc3)CC2)cc1NC(=O)C1CCCO1 (centres unmarked)
Solution: -0.15

Exercise: Item: Cc1ccc(C(=O)N2CCC(c3ccc(-c4cnn(C)c4)cc3)CC2)cc1NC(=O)C1CCNC1 (centres unmarked)
Solution: -0.47

Exercise: Item: Cc1ccc(C(=O)N2CCC(c3ccc(-c4cnn(C)c4)cc3)CC2)cc1NC(=O)c1cccs1
Solution: -0.90

Exercise: Item: Cc1ccc(C(=O)N2CCC(c3ccc(-c4cnn(C)c4)cc3)CC2)cc1NC(=O)c1cccnc1Cl
Solution: -0.81

Exercise: Item: Cc1ccc(C(=O)N2CCC(c3ccc(-c4cnn(C)c4)cc3)CC2)cc1NC(=O)C1CCN(CC(C)(C)C)C1 (centres unmarked)
Solution: -0.77

Exercise: Item: Cc1ccc(C(=O)N2CCC(c3ccc(-c4cnn(C)c4)cc3)CC2)cc1NC(=O)c1ccc(N2CCN(C)CC2)nc1
Solution: -1.18

Exercise: Item: Cc1ccc(C(=O)N2CCC(c3ccc(-c4cnn(C)c4)cc3)CC2)cc1NC(=O)C1CCN(C2CCC2)CC1
Solution: -1.13

Exercise: Item: COCCNc1ccc(C(=O)N2CCC(c3ccc(-c4cnn(C)c4)cc3)CC2)cc1NC(=O)C1CC1
Solution: -0.07

Exercise: Item: Cc1ccc(C(=O)N2CCC(c3ccc(-c4cnn(CC5CCC5)c4)cc3)CC2)cc1NC(=O)c1ccc(NC(C)C)nc1
Solution: -0.61

Exercise: Item: CC(C)Nc1ccc(C(=O)Nc2cc(C(=O)N3CCC(c4ccc(-c5ccnc6ccccc56)cc4)CC3)ccc2Cl)cn1
Solution: -1.19

Exercise: Item: CC(C)Nc1ccc(C(=O)Nc2cc(C(=O)N3CC(c4ccc(-c5cccnc5)cc4)C3)ccc2Cl)cn1
Solution: -1.07

Exercise: Item: Cc1ccc(C(=O)N2CC(c3ccc(-c4ccsc4)cc3)C2)cc1NC(=O)c1ccc(NC(C)C)nc1
Solution: -1.39

Exercise: Item: Cc1ccc(C(=O)N2CCC(c3ccc(-c4cnn(C)c4)cc3)CC2)cc1NC(=O)c1cncs1
Solution: -0.87

Exercise: Item: Cc1ccc(C(=O)N2CCC(c3ccc(-c4cnn(C)c4)cc3)CC2)cc1NC(=O)c1ccccc1F
Solution: -1.08

Exercise: Item: CC(C)Nc1ccc(C(=O)Nc2cc(C(=O)N3CC(c4ccc(-c5ccncc5)cc4)C3)ccc2Cl)cn1
Solution: -1.34

Exercise: Item: Cc1ccc(C(=O)N2CCC(c3ccc(-c4cnn(C)c4C)cc3)CC2)cc1NC(=O)c1ccc(NC(C)C)nc1
Solution: -0.61

Exercise: Item: Cc1ccc(C(=O)N2CCC(c3ccc(-c4cnn(C)c4)cc3)CC2)cc1NC(=O)C1CCN(C2CCCC2)CC1
Solution: -1.39
